System: NIH-3T3 viability, ATP luminescence
Assay: murine fibroblast viability via ATP level – cell-based, murine fibroblasts, cytotoxicity control for Trypanosoma cruzi inhibitor project (AID 1159561)
Details: 4 days
Activity calls are given as the source filed them.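 How the source made its calls: active means toxic to mouse fibroblast host cells, with IC50 below 50 µM; inactive means the rest.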

Compound: N#Cc1nc(C=Cc2ccccc2)oc1NCc1cccnc1
IC50: 13 µM

Compound: CCC(=O)Nc1ccc(-c2nc3ccc(Cl)cc3[nH]2)cc1
IC50: > 50 µM (inactive)

Compound: Cc1cc(N(C)C)nc(Nc2ccccc2C)n1
IC50: 40 µM

Compound: COc1ccccc1C=CCN1C[C@H]2CCC[C@@H](C1)C2(O)c1cccnc1 (stereo partly specified)
IC50: 32 µM

Compound: O=C(c1ccc(OCCCc2cnc[nH]2)cc1)C1CC1
IC50: 13 µM

Compound: O=S(=O)(c1cccc(CSc2nnc(-c3ccc4c(c3)OCO4)o2)c1)N1CCOCC1
IC50: 16 µM
